Data origin, for the record: ChEMBL document CHEMBL5674860

# Test system: Colon cancer organoid
# ASSAY EXPLANATION: Optimized Dual-Glo assay to identify co-culture induced drug vulnerabilities using donated chemical probes and chemogenomics kinase set in O14 CRC organoid and F14 CAF mono and co-culture. […] Cell viability is reported both mono and co-culture models.
# Format: functional, Homo sapiens
# Parameters: dose or concentration left out as unconfirmed
# RUN PARAMETERS: Culture type Mono-Culture; Transduced with Renilla-dsRed lentivirus
Assignment: determine reported Cell Viability for the given molecules.
Write the value in % as a bare number.

Cell Viability value, target or system Colon cancer organoid, for "COc1cc(Nc2nccc(-c3cnn4nc(OC)ccc34)n2)cc(C(F)(F)F)c1" : 63.2458

Cell Viability value, target or system Colon cancer organoid, for CC(=O)Nc1cccc(-n2c(=O)n(C3CC3)c(=O)c3c(Nc4ccc(I)cc4F)n(C)c(=O)c(C)c32)c1 [TRAMETINIB] : 6.441

Cell Viability value, target or system Colon cancer organoid, for COc1cccc2c1C(=O)c1c(O)c3c(c(O)c1C2=O)CC(O)(C(=O)CO)CC3OC1CC(N)C(O)C(C)O1.Cl (configuration not stated) : 97.5605

Cell Viability value, target or system Colon cancer organoid, for "Cc1cc(C)cc([C@H]2c3cc(C)ccc3NC(=O)CN2C(=O)c2ccc(Br)s2)c1" : 91.0337

Cell Viability value, target or system Colon cancer organoid, for "c1ccc2oc(-c3csc(C4CCN(Cc5nc6ncccc6[nH]5)CC4)n3)cc2c1" : 94.4275

Cell Viability value, target or system Colon cancer organoid, for "CC1=C(C)C(=O)C(C(C)(C)CC(=O)N(CCCCSC[C@H]2O[C@@H](n3cnc4c(N)ncnc43)[C@@H]3OC(C)(C)O[C@@H]32)Cc2cccc(-c3ccc(Cl)cc3)c2)=C(C)C1=O" : 108.216

Cell Viability value, target or system Colon cancer organoid, for "CCN(C(=O)CO)[C@H]1CN(/C(=N\C#N)Nc2cccc(OC(F)F)c2)N=C1c1ccc(Cl)c(Cl)c1" : 97.9735

Cell Viability value, target or system Colon cancer organoid, for Cc1cc2c(-c3ccco3)cnc(N[C@H]3CCN(C)C[C@@H]3C(=O)NC3CCCCC3)c2[nH]c1=O [GSK791] : 112.529

Cell Viability value, target or system Colon cancer organoid, for CC(=O)c1c(NS(C)(=O)=O)c2cc(-c3ccc(Cl)cc3)c(-c3ccc(Cl)cc3Cl)nc2n(C)c1=O [MRL-CB1-NC] : 108.592

Cell Viability value, target or system Colon cancer organoid, for CC(=O)N1CCC(c2ccc(C(=O)NC3=NCCN3)cc2C(F)(F)F)CC1 [BI 0054] : 102.083

Cell Viability value, target or system Colon cancer organoid, for CCOCCn1cc(C(=O)Nc2ccc(-n3nc(-c4cccnc4)cc3C(F)(F)F)cn2)ccc1=O [BI 1935] : 100.697

Cell Viability value, target or system Colon cancer organoid, for CCC(F)(F)c1cc(N2CCC(S(C)(=O)=O)CC2)nc2sc(C(N)=O)c(N)c12 [BI-605906] : 83.0517

Cell Viability value, target or system Colon cancer organoid, for "CCc1cccc(CC)c1NC(=O)c1nn(C)c2c1CCc1cnc(Nc3ccc(C(=O)NC4CCN(C)CC4)cc3OC(F)(F)F)nc1-2" : 93.7404

Cell Viability value, target or system Colon cancer organoid, for Cc1nc(NC(=O)N2CCC[C@H]2C(N)=O)sc1-c1ccnc(C(C)(C)C(F)(F)F)c1 [ALPELISIB] : 68.4414

Cell Viability value, target or system Colon cancer organoid, for "CCCCNNC(=O)c1ccc(Br)cc1" : 94.4376

Cell Viability value, target or system Colon cancer organoid, for "CNc1cc(Oc2cc(C(=O)Nc3cc(N4CCN(C)CC4)cc(C(F)(F)F)c3)ccc2C)ncn1" : 99.4408

Cell Viability value, target or system Colon cancer organoid, for "COc1ccccc1C(=O)Nc1cc2c(cc1N1CCCC1)n(C)c(=O)n2C" : 95.8256
